biological target: CB2 receptor (Homo sapiens); test: biochemical; assay type: binding; set-up: expressed in transfected cells; host or cells: CHO cells (membrane preparation); details: versus 0.1 nM [3H]CP55,940; CHO cell membranes; mean ± SEM of three to five experiments; read-out: Ki ± SEM Human CB2
Sequence (P34972 whole entry): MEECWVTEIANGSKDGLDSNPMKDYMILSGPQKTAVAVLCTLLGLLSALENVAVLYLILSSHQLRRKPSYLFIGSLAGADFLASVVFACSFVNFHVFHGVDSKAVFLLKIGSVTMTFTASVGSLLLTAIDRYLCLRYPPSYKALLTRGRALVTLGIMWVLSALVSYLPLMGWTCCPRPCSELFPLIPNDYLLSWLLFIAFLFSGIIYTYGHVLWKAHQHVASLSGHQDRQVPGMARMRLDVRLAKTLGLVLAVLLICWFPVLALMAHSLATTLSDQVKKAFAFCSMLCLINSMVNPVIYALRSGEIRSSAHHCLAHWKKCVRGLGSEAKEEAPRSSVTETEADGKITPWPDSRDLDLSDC
pKi: −log10 of the molar value.
measured.quantity: pKi

[
  {
    "compound": "O=C(NC12CC3CC(CC(C3)C1)C2)c1cn(CCCCCF)c2ccccc12",
    "measured": 9.10
  },
  {
    "compound": "CCCCCn1cc(C(=O)C23CC4CC(CC(C4)C2)C3)c2ccccc21",
    "measured": 8.76
  },
  {
    "compound": "CC1(C)C(C(=O)c2cn(CCN3CCOCC3)c3ccccc23)C1(C)C",
    "measured": 8.10
  },
  {
    "compound": "O=C(Nc1ccc2ccccc2c1)c1cn(CCCCCF)c2ccccc12 [Compound 7, 5F-NNEI-2-naphthyl-isomer]",
    "measured": 6.65
  },
  {
    "compound": "O=C(Nc1cccc2cccnc12)c1nn(CCCCCF)c2ccccc12",
    "measured": 8.56
  },
  {
    "compound": "O=C(Nc1cccc2ccccc12)c1nn(CCCCCF)c2ccccc12",
    "measured": 8.60
  },
  {
    "compound": "CC1(C)C(C(=O)c2cn(Cc3ccc(F)cc3)c3ccccc23)C1(C)C",
    "measured": 9.07
  },
  {
    "compound": "O=C(Oc1cccc2ccccc12)c1cn(Cc2ccc(F)cc2)c2ccccc12",
    "measured": 8.61
  }
]
